This collection of values is drawn from PubChem BioAssay.

# assayed_system: Carbonic anhydrase 2 (Homo sapiens)
# protocol: CAII small-molecule binders, profiling panel, biochemical, small-molecule microarray, Alexa647-labelled CAII (AID 1122)
# assay_setup: CAII-A647 binding fluorescence, higher = more signal
# binarize composite z-score: threshold 0.08 inclusive, high side condition met, low side condition not met

Please review the entries below; each comes with its answer.
- COC(=O)CC=C[C@@H](C)[C@H](OC)c1ccccc1Br: condition not met
- CCN1C(=O)[C@H]2[C@H]3[C@H](O)[C@H](O)CC(=NOCC=C(C)CCC=C(C)C)[C@H]3CC[C@H]2C1=O: condition met
- COc1ccc(OC[C@H]2Cc3c(-c4ccccc4)nc4c(c3CO2)CN(CCOc2ccccc2)CC4)cc1: condition met
- CC(C)CON=C1C[C@@H](O)[C@@H](O)[C@@H]2[C@@H]3C(=O)N([C@@H](C)c4ccccc4)C(=O)[C@@H]3CC[C@H]12: condition met
- COc1ccc(O[C@H]2C=C[C@@H](c3ccccc3)O[C@@H]2COC(=O)CCC(C)=NOC[C@@H](C)[C@H](OCc2ccccc2)C(C)C)cc1: condition not met
- CCOC(=O)[C@H](Cc1ccccc1)NC(=O)CCC1CC(OC(=O)NCc2ccc3c(c2)OCO3)CC2(CCCC(COC(=O)NCc3ccccc3)O2)O1 (some centres undefined): condition met

Test whether the compound "CC(C)=NOCc1cccc(-c2cc(-c3ccccc3)no2)c1" records composite z-score of 0.08 or higher. condition met

Please tell me: is the compound "CC[C@@H](c1ccccc1)n1c(=O)n2n(c1=O)[C@H]1[C@H](O)[C@@H]3O[C@@H]3C(=NOCC=C(C)CCC=C(C)C)[C@H]1CC2" at or over 0.08 in terms of composite z-score? condition met

Hi team, for Cc1ccc(C2CC=C(C(=O)O)CN2S(=O)(=O)c2ccc(C)cc2)cc1 (centres undefined) , is the recorded composite z-score at or above 0.08? condition met

###

# protocol: modulators of S6 phosphorylation in cells, primary screen, cell-based, A549, cytoblot, luminescence, serum-stimulated (AID 1158);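 further: serum-stimulated A549 lung adenocarcinoma cells; signal is phosphorylated S6 detected by cytoblot immunostaining with HRP secondary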
# assay_setup: A549 phospho-S6 cytoblot, 5 h, higher = more signal
recorded_metric: z-score

Please review the entries below; each comes with its answer.
- O=C1[C@H]2[C@H]3[C@H](O)[C@H](O)CC(=NO[C@@H]4O[C@H](CO)[C@@H](O)[C@H](O)[C@H]4O)[C@@H]3CC[C@H]2C(=O)N1Cc1ccccc1: 0.62
- C#CCCCON=C1C[C@@H](O)[C@@H](O)[C@@H]2[C@@H]3C(=O)N(c4cccc(Oc5ccccc5)c4)C(=O)[C@@H]3CC[C@@H]12: -0.512
- Cc1ccc(S[C@]2(C(=O)NCC(F)(F)F)CC(=O)N(Cc3ccccc3Cl)[C@@H]2c2ccc(CO)cc2I)cc1: -0.35
- CC(CCC(=O)OC[C@H]1O[C@H](C#Cc2ccccc2)C=C[C@@H]1Oc1ccc(C)cc1)=NO[C@@H](C)c1cn([C@H](CO)Cc2ccccc2)nn1: 0.672
- Cn1cccc1C(O)C1C=CC2C(=O)NC(=O)C2N1Nc1ccccn1 (stereo not given): -1.14

Report z-score for "C[C@@H]1CC[C@H]2C(=O)O[C@H](COc3ccc(C(C)(C)C)cc3)CN2[C@H]1c1ccc(Br)cc1" please. -0.53

Which z-score is reported for this compound? "CN(C)C(=O)[C@@]1(Cc2ccccc2)N=C(c2ccc(OCCCO)cc2)O[C@H]1c1ccccc1CN=[N+]=[N-]" -0.474

Request the reported z-score associated with "O=C1[C@H]2[C@H]3[C@H](O)[C@H](O)CC(=NOCc4ccccc4)[C@H]3CC[C@H]2C(=O)N1c1ccc(F)cc1F" -0.392

What does the data say about its z-score? Entry: "CC(C)=NOCc1ccc(-c2cc(-c3ccccc3)no2)cc1" 0.321

Find the recorded z-score belonging to "CC(=O)OC[C@H]1O[C@H](CC=NOC[C@@H](C)[C@H](OCc2ccccc2)C(C)C)C=C[C@@H]1OC(C)=O" and report it. -0.0212

Record request: z-score value, item "CC(CCN1CCc2nc(-c3ccccc3)c(-c3ccccc3)cc2C1)=NO[C@@H](C)c1cn([C@H](CO)Cc2ccccc2)nn1" 1.52

What does the record list as z-score for "C[N+](C)(C)CCCCCCNC(=O)[C@@H]1C[C@@H]2C(=O)N3CCC[C@H]3C(=O)N2[C@@H]1c1cccc(OCCO)c1" ? 0.0239

I would be grateful if you could share the reported z-score for "[N-]=[N+]=NCc1ccccc1C[C@]1(C(=O)NCc2ccccc2)N=C(c2ccc(OCCCO)cc2)O[C@H]1c1ccccc1N=[N+]=[N-]" . -0.275

Consider the compound "C[C@H]1Cc2c(-c3ccccc3)nc3c(c2CO1)CN(CCOc1ccccc1)CC3" and give its measured z-score. 0.426

Entry "COC(=O)C1=C(C)N(Cc2ccccc2)[C@]23O[C@](C(=O)OC)(C(=O)N2[C@@H]1c1ccccc1)[C@H]1CCOC(=O)[C@H]13" has what z-score? -0.537

###

# assayed_system: Luciferin 4-monooxygenase (Photinus pyralis) (UniProt P08659)
# Sequence (P08659 whole entry, looked up): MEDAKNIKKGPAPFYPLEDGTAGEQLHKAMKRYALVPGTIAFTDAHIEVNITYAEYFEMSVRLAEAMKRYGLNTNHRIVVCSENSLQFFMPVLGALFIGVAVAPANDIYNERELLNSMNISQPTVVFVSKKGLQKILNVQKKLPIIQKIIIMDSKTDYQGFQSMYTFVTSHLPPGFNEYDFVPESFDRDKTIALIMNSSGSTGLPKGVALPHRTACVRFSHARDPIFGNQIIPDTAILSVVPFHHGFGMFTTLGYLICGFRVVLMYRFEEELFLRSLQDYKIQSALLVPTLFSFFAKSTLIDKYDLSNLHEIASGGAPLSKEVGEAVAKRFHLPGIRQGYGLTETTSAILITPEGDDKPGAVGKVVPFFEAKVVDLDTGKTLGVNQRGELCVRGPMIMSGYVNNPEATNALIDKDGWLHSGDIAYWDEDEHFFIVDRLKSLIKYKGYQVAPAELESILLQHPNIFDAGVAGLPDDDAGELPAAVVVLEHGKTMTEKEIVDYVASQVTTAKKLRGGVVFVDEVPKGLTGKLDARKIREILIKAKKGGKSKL
# protocol: firefly luciferase enzyme inhibitors, primary screen, biochemical, luminescence, purified enzyme, 2006 set (AID 1141);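 further: cell-free assay with purified firefly luciferase at 100 ng per well in PBS; test concentration not given here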
# assay_setup: SteadyGlo luminescence, 30 min, higher = more signal, called active from +8 up or from −8 down
recorded_metric: z-score
Field format: numeric only.

Here's what some known entries look like.
* C#CCCCON=C1C[C@@H](O)[C@@H](O)[C@@H]2[C@@H]3C(=O)N(Cc4ccccc4)C(=O)[C@@H]3CC[C@H]12 | 0.883
* CCCCCN1CC=CC23O[C@@H]4C=CCOC(=O)[C@@H]4[C@H]2C(=O)N(CCCCCCO)[C@@H]3C1=O (some centres undefined) | 0.294
* CC(C)=CCCC(C)=CCON=C1[C@H]2CCn3c(=O)n(Cc4cc5c(cc4Cl)OCO5)c(=O)n3[C@H]2[C@H](O)[C@@H]2O[C@H]12 | 0.196
* CO[C@@H]1COC(=O)[C@H](C)NC(=O)[C@@H](C)COC(=O)CCC[C@H]1C | 0.981
* CCOC(=O)[C@H](Cc1ccccc1)NC(=O)CCC1CC(OC(=O)NCc2ccc3c(c2)OCO3)CC2(CCCC(COC(=O)NCc3cccc(C(F)(F)F)c3)O2)O1 (some centres undefined) | 0.794

The record that follows has no z-score shown yet.
Give the reported z-score for "COCCOC(=O)N1C(=O)[C@@]2(c3cc(C#CC4(O)CCCCCC4)ccc31)[C@H](c1ccc(OCCO)cc1)N1[C@H](c3ccccc3)[C@H](c3ccccc3)OC(=O)[C@H]1[C@@H]2C(=O)NC[C@H](O)c1ccccc1" (system: Luciferin 4-monooxygenase (Photinus pyralis) (UniProt P08659)). -1.05

###

# protocol: small-molecule microarray binders of probe aXIP, primary screen, biochemical, NeuroSMM set, 635/667 nm fluorescence (AID 1119);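 further: probe is the protein aXip251-270 applied at 1 µg/mL to compound-printed slides; binding of probe to printed compounds measured as 667 nm fluorescence plus signal to noise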
# assay_setup: higher = more signal, called active from +8 up or from −8 down
The source made the active and inactive calls.
recorded_metric: composite Z-score

// worked examples, composite Z-score included
- O=C1[C@H]2[C@H]3[C@H](O)[C@H](O)CC(=NOC[C@@H](O)COCc4ccco4)[C@@H]3CC[C@H]2C(=O)N1c1ccc(F)cc1F: -0.397 (inactive)
- CO[C@H]([C@@H](C)[C@H](OC)c1ccccc1)[C@H](C)[C@@H](OC)[C@H](C)C(C)=O: 0.837 (inactive)

Need composite Z-score of COC(=O)[C@H](C)NC(=O)CCC1CC(OC(=O)NCCc2ccc(F)cc2)CC2(CCCC(COC(=O)NCCc3ccc(Cl)cc3)O2)O1 (stereo not given in full) , thanks. 0.65 (inactive)

Using the record for "CC(C)=CCCC(C)=CCON=C1[C@H]2CCn3c(=O)n(C)c(=O)n3[C@H]2[C@H](O)[C@@H]2O[C@H]12" , report its composite Z-score. -0.0793 (inactive)

Value lookup for composite Z-score; key = c1ccc(C2NCCc3c2[nH]c2ccccc32)cc1 (stereo not given) -0.0389 (inactive)

Please look up its composite Z-score: "COC(=O)CC=C[C@H](C)[C@@H](OCc1ccccc1Br)C(C)C" -0.0469 (inactive)

Give its composite Z-score value. Item: "O=C(CS)NCCCCCNC(=O)[C@H]1C[C@H]2C(=O)N3CCC[C@H]3C(=O)N2[C@H]1c1cccc(OCCO)c1" 0.62 (inactive)

###

# System: Sonic hedgehog protein (Shh)
# protocol: small-molecule binders of Shh protein, primary screen, biochemical, small-molecule microarray, 635/667 nm fluorescence (AID 1151);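 further: Shh protein binding to compounds spotted on small-molecule microarray slides; score combines spot fluorescence intensity with signal-to-noise across triplicate slides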
# assay_setup: small-molecule microarray binding, 635 nm fluorescence; higher = more signal
recorded_metric: composite z-score
Number only, please.

Examples from the recorded data:
- CCc1cc2c(nc1CC)CCN(CCC(C)=NO[C@@H](C)c1cc(-c3c(C)cc(C)cc3C)no1)C2: 0.134
- COc1cccc([C@H]2Oc3ccc(OC)cc3C(=NO[C@H](C)c3cn([C@@H]4COC[C@H]4O)nn3)[C@@H]2O)c1: -0.223
- CO[C@@H]1COC(=O)CC=C[C@@H](C)COC(=O)[C@H](COCc2ccccc2)NC(=O)CC=C[C@H]1C: 1.77
- C[C@@H](c1ccccc1)N1C(=O)[C@H]2[C@H]3[C@H](O)[C@H](O)CC(=NOC[C@@H](O)COCc4ccco4)[C@@H]3CC[C@H]2C1=O: -0.494
- COCC1=C2[C@@H](CCc3ccccc3)OB(O)C[C@@H]2n2c(=O)n(-c3ccccc3)c(=O)n2C1: 0.966
- c1ccc(C2NCCc3c2[nH]c2ccccc32)cc1 (stereo not drawn): -0.12

# get_value(readout='composite z-score', item= COc1cccc([C@H]2Oc3ccc(OC)cc3C(=NOC(C)CN3CCCc4nc(C)c(C)cc43)[C@@H]2O)c1 (stereo partly drawn) ) 0.478

Query (compound): Cc1cc2c(nc1C)CCCN2CC(C)ON=C1[C@H]2CCn3c(=O)n(-c4ccccc4)c(=O)n3[C@H]2[C@H](O)[C@@H]2O[C@H]12 (stereo partly drawn) ; field requested: composite z-score 1.03
